- Target Or System: CFTR (F508del/MF-HBE cells) (Homo sapiens, UniProt P13569, DEL508-508)
- Construct: human bronchial epithelial (HBE) cells derived from CF subjects heterozygous for F508del and a minimal function CFTR mutation (F508del/MF-HBE); endogenous in cells; host or cells: Primary human bronchial epithelial cells from CF subjects (F508del/MF genotype), differentiated at an air-liquid interface
- Sequence (P13569 with tags, fused parts or gaps DEL508-508): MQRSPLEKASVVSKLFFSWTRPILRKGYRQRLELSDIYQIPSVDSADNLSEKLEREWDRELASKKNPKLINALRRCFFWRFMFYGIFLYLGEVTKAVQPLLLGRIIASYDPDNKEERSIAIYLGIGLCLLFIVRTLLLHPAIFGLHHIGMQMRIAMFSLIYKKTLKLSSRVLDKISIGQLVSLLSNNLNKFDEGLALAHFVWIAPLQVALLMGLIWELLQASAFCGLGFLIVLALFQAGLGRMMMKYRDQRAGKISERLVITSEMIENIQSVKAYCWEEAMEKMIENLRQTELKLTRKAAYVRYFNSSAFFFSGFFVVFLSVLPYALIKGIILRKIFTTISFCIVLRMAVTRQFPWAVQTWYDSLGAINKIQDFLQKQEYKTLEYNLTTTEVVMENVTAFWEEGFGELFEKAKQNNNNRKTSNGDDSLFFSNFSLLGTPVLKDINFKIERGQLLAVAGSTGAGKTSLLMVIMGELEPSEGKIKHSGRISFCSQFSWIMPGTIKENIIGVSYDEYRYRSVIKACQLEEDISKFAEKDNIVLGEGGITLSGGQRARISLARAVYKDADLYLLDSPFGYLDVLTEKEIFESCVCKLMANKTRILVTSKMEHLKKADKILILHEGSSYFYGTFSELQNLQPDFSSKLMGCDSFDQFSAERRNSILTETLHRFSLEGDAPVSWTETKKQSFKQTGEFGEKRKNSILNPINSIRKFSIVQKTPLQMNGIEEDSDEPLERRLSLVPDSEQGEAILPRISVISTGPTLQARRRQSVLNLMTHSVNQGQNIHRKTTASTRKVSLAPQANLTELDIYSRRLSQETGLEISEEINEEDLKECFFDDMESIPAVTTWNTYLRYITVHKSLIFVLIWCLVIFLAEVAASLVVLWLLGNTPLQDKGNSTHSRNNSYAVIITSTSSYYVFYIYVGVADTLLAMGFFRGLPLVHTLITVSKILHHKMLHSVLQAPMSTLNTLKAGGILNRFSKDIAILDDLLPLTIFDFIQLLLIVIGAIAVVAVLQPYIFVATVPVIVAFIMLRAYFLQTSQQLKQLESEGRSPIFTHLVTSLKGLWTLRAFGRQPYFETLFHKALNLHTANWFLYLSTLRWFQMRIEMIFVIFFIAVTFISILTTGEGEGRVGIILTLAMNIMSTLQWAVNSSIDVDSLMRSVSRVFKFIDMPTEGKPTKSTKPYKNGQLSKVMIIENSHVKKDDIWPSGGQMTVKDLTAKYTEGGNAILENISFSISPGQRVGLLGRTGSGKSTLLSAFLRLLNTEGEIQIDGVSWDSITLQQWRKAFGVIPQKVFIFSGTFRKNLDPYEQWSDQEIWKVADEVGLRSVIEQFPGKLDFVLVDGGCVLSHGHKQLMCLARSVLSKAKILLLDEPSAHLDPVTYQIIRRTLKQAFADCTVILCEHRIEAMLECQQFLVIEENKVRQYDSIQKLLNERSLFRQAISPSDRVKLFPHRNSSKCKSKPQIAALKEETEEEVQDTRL
- Experiment Description: Ussing chamber assay of CFTR-mediated short-circuit currents, Assay D (single concentration of 1 μM)
- Assay type: cell-based
- Condition Description: with 44 nM potentiator and 18 μM Tezacaftor, 18-24 hours, 20% human serum

>  <Structure Notation>
Cc1cccc(C)c1-c1cc2nc(n1)NS(=O)(=O)c1cccc(c1)C(=O)N(Cc1cnc3cc(C(C)(C)C)n(C)c3n1)[C@H](CC1(C)CC1)CO2

>  <D activity at 1 μM (%)>
+++ (+++ is >60%)

$$$$
>  <Structure Notation>
Cc1cccc(C)c1-c1cc2nc(n1)NS(=O)(=O)c1cccc(c1)C(=O)N(Cc1cnc3cc(C(C)C)n(C)c3n1)[C@H](COC1CCCC1)CO2

>  <D activity at 1 μM (%)>
+++ (+++ is >60%)

$$$$
>  <Structure Notation>
Cc1cccc(C)c1-c1cc2nc(n1)NS(=O)(=O)c1cccc(c1)C(=O)N(Cc1ncc3oc(C4CC4)cc3n1)[C@H](COC(C)C)CO2

>  <D activity at 1 μM (%)>
+++ (+++ is >60%)

$$$$

====

- Target Or System: CFTR (F508del/MF-HBE cells) (Homo sapiens, UniProt P13569, DEL508-508)
- Construct: human bronchial epithelial (HBE) cells derived from CF subjects heterozygous for F508del and a minimal function CFTR mutation (F508del/MF-HBE); endogenous in cells; host or cells: Primary human bronchial epithelial cells from CF subjects (F508del/MF genotype), differentiated at an air-liquid interface
- Experiment Description: Ussing chamber assay of CFTR-mediated short-circuit currents, Assay D (single concentration of 1 μM)
- Assay type: cell-based
- Condition Description: with 44 nM potentiator and 18 μM Tezacaftor, 18-24 hours, 20% human serum
Reported Endpoint: D activity at 1 μM (%)

>  <Structure Notation>
Cc1cccc(C)c1-c1nc2nc(c1C)OC[C@@H](CC13CC(C1)C3)N(Cc1cnc3oc(C(C)(C)C)cc3n1)C(=O)c1cccc(c1)S(=O)(=O)N2

>  <Result>
+++ (+++ is >60%)

$$$$
>  <Structure Notation>
Cc1cccc(C)c1-c1cc2nc(n1)NS(=O)(=O)c1cccc(c1)C(=O)N(Cc1cnc3oc(C(C)C)c(N)c3n1)[C@H](CC1(C)CC1)CO2

>  <Result>
+++ (+++ is >60%)

$$$$
>  <Structure Notation>
Cc1cccc(C)c1-c1cc2nc(n1)NS(=O)(=O)c1cccc(c1)C(=O)N(Cc1cnc3cc(C(C)(C)C)n(C)c3n1)[C@H](COC(C)C)CO2

>  <Result>
+++ (+++ is >60%)

$$$$

====

- Target Or System: CFTR (F508del/MF-HBE cells) (Homo sapiens, UniProt P13569, DEL508-508)
- Construct: human bronchial epithelial (HBE) cells derived from CF subjects heterozygous for F508del and a minimal function CFTR mutation (F508del/MF-HBE); endogenous in cells; host or cells: Primary human bronchial epithelial cells from CF subjects (F508del/MF genotype), differentiated at an air-liquid interface
- Experiment Description: Ussing chamber assay of CFTR-mediated short-circuit currents, Assay C (0.026 μM to 25 μM, 6 concentrations)
- Format: cell-based
- Condition Description: with 33 nM potentiator and 18 μM Tezacaftor, 20% human serum
Give measured EC50 for each item. Keep answers brief.

Answered examples (2):
>  <Molecule>
Cc1cccc(CC(C)C)c1-c1nc2nc(c1C)OC[C@@H](COC(F)(F)F)N(Cc1cnc3cc(C(C)(C)C)n(C)c3n1)C(=O)c1cccc(c1)S(=O)(=O)N2 (atropisomer, axis not shown; (P))

>  <EC50>
1 to 3 µM

$$$$
>  <Molecule>
Cc1cccc(C)c1-c1cc2nc(n1)NS(=O)(=O)c1cccc(c1)C(=O)N(Cc1cnc3oc(C(C)(C)CO)cc3n1)[C@H](CC1(C)CC1)CO2

>  <EC50>
3 to 30 µM

$$$$

Could you now consider this next molecule?
[Q] Param readout = EC50; param system = CFTR (F508del/MF-HBE cells) (Homo sapiens, UniProt P13569, DEL508-508); param query = Cc1cccc(C)c1-c1cc2nc(n1)NS(=O)(=O)c1cccc(c1)C(=O)N(Cc1cnc3oc(C(C)CO)cc3n1)[C@H](CC1(C)CC1)CO2 (stereo partly drawn) ; response: value
[A] 1 to 3 µM

====

- Target Or System: CFTR (F508del/MF-HBE cells) (Homo sapiens, UniProt P13569, DEL508-508)
- Construct: human bronchial epithelial (HBE) cells derived from CF subjects heterozygous for F508del and a minimal function CFTR mutation (F508del/MF-HBE); endogenous in cells; host or cells: Primary human bronchial epithelial cells from CF subjects (F508del/MF genotype), differentiated at an air-liquid interface
- Experiment Description: Ussing chamber assay of CFTR-mediated short-circuit currents, Assay C (0.026 μM to 25 μM, 6 concentrations)
- Assay type: cell-based
- Condition Description: with 33 nM potentiator and 18 μM Tezacaftor, 20% human serum
pEC50: −log10 of the molar value.
Field: pEC50. Provide a value for each of the compounds that follow.

>  <Compound>
CCc1cccc(CC)c1-c1cc2nc(n1)NS(=O)(=O)c1cccc(c1)C(=O)N(Cc1cnc3cc(C4(C)CC4)n(C)c3n1)[C@H](CC(C)(C)C)CO2

>  <Target Or System>
CFTR (F508del/MF-HBE cells) (Homo sapiens, UniProt P13569, DEL508-508)

>  <pEC50>
5.52 to 6.00

$$$$

Batch of 2 compounds: report pEC50 for each.
1. Cc1cccc(COC(C)C)c1-c1nc2nc(c1C)OC[C@@H](CC(C)(C)C)N(Cc1cnc3oc(C(C)(C)C)cc3n1)C(=O)c1cccc(c1)S(=O)(=O)N2 (single isomer, unassigned)
2. Cc1cccc(CC2CCCC2)c1-c1nc2nc(c1C)OC[C@@H](CC(C)(C)C)N(Cc1cnc3cc(C(C)C)n(C)c3n1)C(=O)c1cccc(c1)S(=O)(=O)N2 (atropisomer, axis not shown; (P))

[A]
["> 6.00", "> 6.00"]

// each compound listed below needs its pEC50
1. Cc1cccc(C)c1-c1cc2nc(n1)NS(=O)(=O)c1cccc(c1)C(=O)N(Cc1cnc3oc(C(C)(C)C)cc3n1)[C@H](C[C@@H]1CCCCO1)CO2
2. Cc1cccc(OC(C)C)c1-c1nc2nc(c1C)OC[C@@H](CC(C)(C)C)N(Cc1cnc3cc(C(C)(C)C)n(C)c3n1)C(=O)c1cccc(c1)S(=O)(=O)N2 (atropisomer, axis not shown)

[A]
1: 5.52 to 6.00; 2: > 6.00

====

- Target Or System: CFTR (F508del/MF-HBE cells) (Homo sapiens, UniProt P13569, DEL508-508)
- Construct: human bronchial epithelial (HBE) cells derived from CF subjects heterozygous for F508del and a minimal function CFTR mutation (F508del/MF-HBE); endogenous in cells; host or cells: Primary human bronchial epithelial cells from CF subjects (F508del/MF genotype), differentiated at an air-liquid interface
- Experiment Description: Ussing chamber assay of CFTR-mediated short-circuit currents, Assay C (0.026 μM to 25 μM, 6 concentrations)
- Assay type: cell-based
- Condition Description: with 33 nM potentiator and 18 μM Tezacaftor, 20% human serum
pEC50: −log10 of the molar value.
Give pEC50 for every item shown.

Would you please look over these solved cases?
>  <Compound>
Cc1cccc(C)c1-c1cc2nc(n1)NS(=O)(=O)c1cccc(c1)C(=O)N(Cc1cnc3oc(C(C)(C)C)cc3n1)[C@H](CC13CC(C)(C1)C3)CO2 [IV-53]

>  <pEC50>
5.52 to 6.00

$$$$
>  <Compound>
Cc1cccc(C)c1-c1cc2nc(n1)NS(=O)(=O)c1cccc(c1)C(=O)N(Cc1cnc3oc(COC(C)C)cc3n1)[C@H](CC1(C)CC1)CO2 [IV-18]

>  <pEC50>
5.52 to 6.00

$$$$
>  <Compound>
Cc1cccc(C)c1-c1nc2nc(c1C)OC[C@@H](C[C@H]1CCCO1)N(Cc1cnc3cc(C4(C(F)(F)F)CC4)n(C)c3n1)C(=O)c1cccc(c1)S(=O)(=O)N2 [IV-106]

>  <pEC50>
> 6.00

$$$$

Give me pEC50 for each of these compounds, listed below.
1. Cc1cccc(C)c1-c1cc2nc(n1)NS(=O)(=O)c1cccc(c1)C(=O)N(Cc1cnc3oc(C4CC4)cc3n1)[C@H](C[C@@H]1CCCCO1)CO2 [IV-86]
2. Cc1cccc(C)c1-c1cc2nc(n1)NS(=O)(=O)c1cccc(c1)C(=O)N(Cc1nc3cc(C4CC4)oc3cc1F)[C@H](CC13CC(C1)C3)CO2 [Compound I-208]
3. Cc1cccc(C)c1-c1nc2nc(c1C)OC[C@@H](C[C@H]1CCCCO1)N(Cc1cnc3cc(C4CC4)n(C)c3n1)C(=O)c1cccc(c1)S(=O)(=O)N2 [Compound I-193]
4. Cc1cccc(C)c1-c1cc2nc(n1)NS(=O)(=O)c1cccc(c1)C(=O)N(Cc1cnc3oc(C(C)(C)C)cc3n1)[C@@H](CC1CC(F)(F)C1)CO2 [IV-57]
5. Cc1cccc(C)c1-c1cc2nc(n1)NS(=O)(=O)c1cccc(c1)C(=O)N(Cc1cnc3oc(C)c(C4CC4)c3n1)[C@H](CC13CC(C1)C3)CO2 [Compound I-86]
6. COc1c2nc(nc1-c1c(C)cccc1C)NS(=O)(=O)c1cccc(c1)C(=O)N(Cc1cnc3cc(C4(C)CC4)n(C)c3n1)[C@H](COC(C)C)CO2 [IV-11]

[A]
1. 4.52 to 5.52
2. 5.52 to 6.00
3. > 6.00
4. 4.52 to 5.52
5. 5.52 to 6.00
6. > 6.00
